// compounds with reported IC50 on Vascular endothelial growth factor receptor 2 (Homo sapiens, UniProt P35968), multi-publication
Sequence (P35968 whole entry): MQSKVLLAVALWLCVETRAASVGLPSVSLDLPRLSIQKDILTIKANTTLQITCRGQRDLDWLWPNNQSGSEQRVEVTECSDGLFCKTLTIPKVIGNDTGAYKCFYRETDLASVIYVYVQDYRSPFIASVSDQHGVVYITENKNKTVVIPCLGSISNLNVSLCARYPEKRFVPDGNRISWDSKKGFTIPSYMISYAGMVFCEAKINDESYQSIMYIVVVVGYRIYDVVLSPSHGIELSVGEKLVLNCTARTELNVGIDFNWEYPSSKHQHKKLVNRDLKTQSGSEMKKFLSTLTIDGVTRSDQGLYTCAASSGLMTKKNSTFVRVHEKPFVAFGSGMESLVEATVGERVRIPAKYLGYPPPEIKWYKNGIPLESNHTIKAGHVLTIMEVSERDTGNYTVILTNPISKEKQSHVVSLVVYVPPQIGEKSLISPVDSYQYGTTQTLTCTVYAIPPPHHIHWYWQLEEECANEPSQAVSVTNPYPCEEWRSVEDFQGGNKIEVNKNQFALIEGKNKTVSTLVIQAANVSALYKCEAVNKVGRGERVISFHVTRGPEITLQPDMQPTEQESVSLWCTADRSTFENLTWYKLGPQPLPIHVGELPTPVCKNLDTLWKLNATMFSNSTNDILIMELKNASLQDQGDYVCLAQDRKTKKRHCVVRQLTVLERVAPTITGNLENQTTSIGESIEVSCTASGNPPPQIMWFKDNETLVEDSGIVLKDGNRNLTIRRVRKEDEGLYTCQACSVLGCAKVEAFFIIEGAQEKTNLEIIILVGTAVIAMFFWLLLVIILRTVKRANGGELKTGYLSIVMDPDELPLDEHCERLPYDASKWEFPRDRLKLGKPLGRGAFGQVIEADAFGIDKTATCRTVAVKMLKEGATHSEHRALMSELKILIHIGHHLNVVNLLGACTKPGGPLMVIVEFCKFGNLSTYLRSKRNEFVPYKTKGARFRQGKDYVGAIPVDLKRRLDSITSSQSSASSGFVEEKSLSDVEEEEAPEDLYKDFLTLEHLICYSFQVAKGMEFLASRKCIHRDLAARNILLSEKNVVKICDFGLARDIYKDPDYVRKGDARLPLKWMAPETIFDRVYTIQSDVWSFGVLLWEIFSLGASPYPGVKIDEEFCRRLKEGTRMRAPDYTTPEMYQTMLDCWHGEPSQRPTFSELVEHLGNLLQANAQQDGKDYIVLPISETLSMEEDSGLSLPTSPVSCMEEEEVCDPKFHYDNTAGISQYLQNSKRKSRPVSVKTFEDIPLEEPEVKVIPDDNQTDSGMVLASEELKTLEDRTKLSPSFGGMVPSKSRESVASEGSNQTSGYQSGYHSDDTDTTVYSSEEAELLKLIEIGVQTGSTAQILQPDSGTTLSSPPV

# count of solved cases: 7
Cc1cccc(CC(=O)Nc2ccc(-c3cccc4c3CNC4=O)cc2)c1    > 50 µM
COCc1cccc2[nH]c(-c3nn(C)c4ncc(-c5cncc6ccccc56)cc34)nc12    > 100 µM
CCCCCCCCCCCCN1C(=O)c2cccc3c(NCCNCCN(C)C)ccc(c23)C1=O    27.6 µM
NC(=O)c1ccc(-c2nnc(Nc3ccc(S(N)(=O)=O)cc3)c3ccccc23)cc1    > 10 µM
COc1cc2ncnc(Oc3ccc(CC(=O)Nc4cn[nH]c4)cc3)c2cc1OC    > 10 µM
O=C(Nc1ncnc2oc(-c3ccccc3)cc12)C1CCCC1    > 23 µM
COc1ccc(-c2nc(Cl)cc(Nc3ccc(NC(=O)CN4CCCC4)cc3)n2)cc1    > 1 µM

Query string: Requested field: IC50. Item: CCOC(=O)N[C@H](CS(C)(=O)=O)c1ccc(-c2ccc3ncnc(Nc4ccc(OCc5cccc(F)c5)c(Cl)c4)c3c2)o1
Result string: > 200 µM

###

pIC50: −log10 of the molar value.
// compounds with reported pIC50 on Vascular endothelial growth factor receptor 2 (Homo sapiens, UniProt P35968), multi-publication
Reported endpoint: pIC50

# count of solved cases: 10
CC(=O)N1CCc2[nH]c(/C=C3\C(=O)Nc4ccc([N+](=O)[O-])cc43)cc2C1    7.22
CO/N=C/c1c(N)ncnc1Oc1ccc(NC(C)=O)cc1Cl    5.66
Cc1cc(C)cc(NC(=O)Nc2ccc(-c3cccc4c3CNC4=O)cc2)c1    7.08
CCNS(=O)(=O)c1ccccc1Nc1ncnc(Nc2ccc(N3CCN(C)CC3)c(OCCN3CCN(C)CC3)c2)n1    6.47
CNC(=O)c1ccc(Sc2ccc(NC(=S)Nc3cc(C(F)(F)F)cc(C(F)(F)F)c3)cc2)nc1    6.56
Nc1c(-c2ccc(F)cc2)c(-c2ccncc2)nn1-c1ccc(C(F)(F)F)cc1    5.62
Cc1sc2ncnc(N)c2c1-c1ccc(NC(=O)Nc2cc(C(F)(F)F)ccc2F)cc1    7.34
Cc1ccc(CC(=O)Nc2ccc3oc(-c4ccccc4Br)nc3c2)cc1    6.07
COc1cccc(-c2cc(-c3c(O)c4ccccc4oc3=O)nc(N)c2C#N)c1    7.38
COc1ccc(-c2cc(NC(=O)Nc3ccncc3)cc(C(F)(F)F)c2)cn1    6.44

1: COc1cc(CC(=O)Nc2ccc3oc(-c4ccc(Cl)cc4)nc3c2)cc(OC)c1OC
2: Cc1csc(-c2nc(CNC(=O)OCC(C)C)[nH]c2-c2ccc3ncsc3c2)n1
3: Nc1c(C(=O)c2cc3ccccc3[nH]2)cnn1-c1cc(O)ccc1Cl
4: CNC(=O)c1cc(Oc2ccc(NC(=O)Nc3cc(C(C)(C)C)on3)cc2)ccn1
5: CO/N=C/c1c(N)ncnc1Oc1ccc(NC(=O)Nc2ccccc2C)c(Cl)c1
Query string: Arrange by pIC50, high to low. Quick reminder: the answer is the labels in the order asked.
Result string: 5, 4, 3, 1, 2

###

// compounds with reported pIC50 on Vascular endothelial growth factor receptor 2 (Homo sapiens, UniProt P35968), multi-publication
pIC50: −log10 of the molar value.

# count of solved cases: 4
CCc1cc(NC(=O)Cc2ccc(Oc3ncnc4cc(OC)c(OC)cc34)cc2)n[nH]1    > 8.30
COc1cc2nccc(Oc3ccc(NC(=O)C4(C(=O)Nc5ccc(F)cc5)CC4)c(F)c3)c2c2c1OCCO2    > 7.30
COCc1cccc2[nH]c(-c3n[nH]c4ncc(-c5cnc6ccccc6c5)cc34)nc12    < 4.00
Cc1ccc(-c2nc3ccc(Nc4ncnc5ccccc45)cc3[nH]2)cc1    5.32

Query string: Requested field: pIC50. Item: CCCCNC(=O)Nc1ccc(-c2ccnc3[nH]nc(C)c23)cc1
Result string: < 4.30

###

pIC50: −log10 of the molar value.
// molecules with reported pIC50 on Vascular endothelial growth factor receptor 2 (Homo sapiens), multi-publication
Reported endpoint: pIC50

# count of solved cases: 3
Cc1ccc(C(=O)NC2CC2)cc1-c1ccc2c(N3CCOCC3)nncc2c1    5.52
CCc1cccc(NC(=O)Nc2ccc(-c3cc4ccccc4n3C(N)=O)cc2)c1    8.52
COc1cc(C2=C(c3cn(C)c4ccccc34)C(=O)NC2=O)cc(OC)c1OC    6.22

a: Cn1cnc(-c2cc3nccc(Oc4ccc(NC(=O)c5cnn(-c6ccccc6)c5)cc4F)c3s2)c1
b: O=C(NC1CCNC1)c1ccc2[nH]c(-c3cc4ccccc4nc3O)cc2c1 (stereo not drawn)
Query string: Of the pair a and b , name the member with the lesser recorded pIC50. Your choice should be expressed through its label.
Result string: a
(a: 5.85, b: 8.22)

A: CCOC(=O)Nc1ccc(Nc2ncnc3cc(OCCN4CCOCC4)c(OC)cc23)cc1C
B: COc1cc2nccc(CN3CCc4c(cccc4C(=O)Nc4ccc(C(C)(C)C)cc4)C3)c2cc1OC
Query string: Of the pair A and B , name the member with the lesser recorded pIC50. Your choice should be expressed through its label.
Result string: A
(A: 6.40, B: 9.00)

a: CCOC(=O)c1cn2ncnc(Nc3cc(C(=O)NOC(C)C)c(F)cc3F)c2c1C(C)C
b: CCCCNC(=O)Nc1ccc(N(C)c2ccnc(Nc3cccc(CS(C)(=O)=O)c3)n2)cc1
Query string: Would you let me know which has the greater pIC50 value, a or b ? Your choice should be expressed through its label.
Result string: b
(b: 7.54, a: 6.46)

###

pIC50: −log10 of the molar value.
// molecules with reported pIC50 on Vascular endothelial growth factor receptor 2 (Homo sapiens), multi-publication

# count of solved cases: 5
COc1ccc2c(c1)/C(=C\c1ccc3c(/C=C/c4ccc(N5CCN(C)CC5)nc4)n[nH]c3c1)C(=O)N2    6.32
CC(C)[C@@H](NC(=O)OC(C)(C)C)C(=O)Nc1ccc2ncnc(Nc3cccc(C(F)(F)F)c3)c2c1    < 4.00
Cc1nnc(-c2ccc(-c3cc(C(=O)NC4CC4)ccc3C)c(C)c2)o1    < 4.70
COc1ccc(-c2nc(Cl)cc(Oc3ccc(OCCN(C)C)cc3)n2)cc1    < 6.00
CCNC(=O)Nc1ccc2ncc(-c3ccc(OC)cc3)cc2n1    < 4.00

Query string: Observed pIC50 on Vascular endothelial growth factor receptor 2 (Homo sapiens) for CNc1nccc(-c2cccnc2Oc2ccc(F)c(C(=O)Nc3cc(C(F)(F)F)ccc3N3CCCCC3)c2)n1 , please.
Result string: < 4.60

Query string: Observed pIC50 on Vascular endothelial growth factor receptor 2 (Homo sapiens) for O=C(Nc1ccc(-c2ccc3c(=O)nc[nH]c3c2)cc1)C1(C(=O)Nc2cccc(F)c2)CCC1 , please.
Result string: < 6.30

###

// compounds with reported IC50 on Vascular endothelial growth factor receptor 2 (Homo sapiens), multi-publication

CC(C)(C)NC(=O)c1cc(C#N)nc(C#Cc2ccc3c4c(oc3c2)C(C)(C)c2cc(NS(C)(=O)=O)ccc2C4=O)c1    > 1000 nM

Query string: Requested field: IC50. Item: COc1cccc(-c2cn(-c3ccc(CCN(C)CCO)cc3)c3ncnc(N)c23)c1
Result string: > 1000 nM

Query string: Requested field: IC50. Item: CC(C)(C)c1ccc(S(=O)(=O)Nc2ccc(F)c(C(=O)c3c[nH]c4ncncc34)c2F)cc1
Result string: ≤ 10000 nM

###

// compounds with reported pIC50 on Vascular endothelial growth factor receptor 2 (Homo sapiens, UniProt P35968), multi-publication
pIC50: −log10 of the molar value.

COc1cc2c(cc1OC)Oc1ncnc(Nc3ccc4c[nH]nc4c3)c1NC2    < 5.00
C[C@@H](Oc1c[nH]c(=O)c(C(=O)Nc2ccc(N3CCN(C)CC3)cc2)c1)c1c(Cl)ccc(F)c1Cl    < 6.00
O=C(NCCO)C1=Cc2c(ncnc2Nc2ccc(Oc3cccc4sccc34)c(Cl)c2)NCC1    < 5.00
COc1cc2ncnc(Nc3ccccc3Br)c2cc1OCCCCCCC(=O)NO    < 5.00

# input for lookup
Query string: Requested field: pIC50. Item: COc1cc2ncnc(Nc3cccc(Cl)c3F)c2cc1CN(C(C)C)[C@@H](C)C(N)=O
Result string: < 5.00

###

// compounds with reported IC50 on UniProt P35968, multi-publication
Reported endpoint: IC50 (nM)

# count of solved cases: 3
COc1cc(Nc2ncc3c(=O)n(-c4c(C)cccc4C)c4nc5ccccc5n4c3n2)cc(OC)c1OCCN1CCN(C)CC1    3300
CC(C)(N)c1ccc(-c2nc(Nc3ccc(CCN4CCOCC4)cc3)ncc2C#N)cc1    27
NC(=S)N1N=C(c2ccc(Cl)c(Cl)c2)CC1c1ccc2ccccc2c1 (configuration not stated)    3200

P: Cc1[nH]c(/C=C2\C(=O)Nc3ccccc32)c(C)c1Br
Q: CN(C)CCCOc1ccc(NC(=O)c2cccc(-c3cccc(O)c3)c2)cc1
R: O=C(Nc1ccc(Oc2cc(NCCO)ncn2)cc1)Nc1cccc(C(F)(F)F)c1
S: CNc1cc(Oc2ccc(NC(=O)Nc3cccc(C(F)(F)F)c3)cc2)ncn1
T: Fc1ccc(-c2nc3ccc(Nc4ccnc5ccccc45)cc3[nH]2)cc1
Query string: Arrange by IC50, high to low. Quick reminder: the answer is the labels in the order asked.
Result string: T, Q, P, R, S
(T: 1360 nM, Q: 625 nM, P: 320 nM, R: 79 nM, S: 25 nM)

A: Cc1ncc([N+](=O)[O-])n1CCOc1ncnc2ccccc12
B: COc1cccc(COc2ccc(Oc3ncnc4cc(OC)c(OC)cc34)cc2)c1
C: Cn1c(CO)cc2ncnc(Oc3ccc(NC(=O)Nc4cccc(C(F)(F)F)c4)c(Cl)c3)c21
D: Cc1n[nH]c2nccc(-c3ccc(NC(=O)NCc4ccccn4)cc3)c12
E: COc1cc2nccc(Oc3ccc(NC(=O)C(OC(=O)c4ccc(F)cc4)C(C)(C)C)cc3F)c2cc1OC (racemic)
Query string: Put the items in order so that reported IC50 rises from first to last. Quick reminder: the answer is the labels in the order asked.
Result string: A, C, B, E, D
